Molecular target: human 5-HT2C-INI (Homo sapiens, UniProt P28335)
Sequence (P28335 33-458): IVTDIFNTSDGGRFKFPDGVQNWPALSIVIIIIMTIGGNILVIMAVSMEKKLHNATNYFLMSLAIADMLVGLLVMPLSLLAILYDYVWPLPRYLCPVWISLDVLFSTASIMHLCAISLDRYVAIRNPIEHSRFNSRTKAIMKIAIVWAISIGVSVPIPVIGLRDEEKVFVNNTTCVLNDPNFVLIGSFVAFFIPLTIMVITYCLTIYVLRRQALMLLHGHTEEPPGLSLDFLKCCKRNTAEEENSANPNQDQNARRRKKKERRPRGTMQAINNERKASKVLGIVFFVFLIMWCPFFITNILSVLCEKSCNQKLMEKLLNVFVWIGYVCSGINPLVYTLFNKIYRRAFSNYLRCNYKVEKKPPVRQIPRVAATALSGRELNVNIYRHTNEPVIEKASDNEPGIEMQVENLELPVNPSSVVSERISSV
Assay: Calcium flux (FLIPR) assay, human 5-HT2C-INI stably expressed in HEK-293 (Flp-In-293) cells
Settings: human 5-HT2C-INI in HEK-293 cells, FLIPR; normalized to 5-HT
Readout type: Emax, % 5-HT 5-HT2C

Some entries whose results are on file:
COc1cc(F)c(Cl)cc1[C@@H]1C[C@H]1CN (single isomer, unassigned) [(−)-Example 1] :: (99%) % 5-HT
C=C(F)COc1ccc(F)cc1C1CC1CN (single isomer, unassigned; (+)) [(+)-Example 9] :: (91%) % 5-HT
CCOc1ccc(Cl)cc1C1CC1CN (single isomer, unassigned; (+)) [(+)-Example 11] :: (91%) % 5-HT
NCC1CC1c1c(OCCF)ccc(Cl)c1F (single isomer, unassigned; (+)) [(+)-Example 31] :: (86%) % 5-HT
C=CCOc1ccc(F)cc1C1CC1CN (single isomer, unassigned; (+)) [(+)-Example 8] :: (87%) % 5-HT

Give one value of Emax, % 5-HT 5-HT2C per listed compound.
1. NCC1CC1c1c(OCCF)ccc(F)c1Cl (single isomer, unassigned; (+)) [(+)-Example 52]
2. C=CCOc1ccc(F)cc1C1CC1CN (single isomer, unassigned; (-)) [(−)-Example 8]
3. C=CCOc1ccc(Cl)c(F)c1C1CC1CN (single isomer, unassigned; (-)) [(−)-Example 32]
4. CCOc1cc(F)c(Cl)cc1C1CC1CN (single isomer, unassigned; (+)) [(+)-Example 2]
5. NCC1CC1c1cc(F)c(F)cc1OCCF (single isomer, unassigned; (+)) [(+)-Example 42]
6. COc1ccc(Cl)c(F)c1[C@@H]1C[C@H]1CN (single isomer, unassigned) [(+)-Example 29]
7. NCC1CC1c1c(OCCF)ccc(F)c1F (single isomer, unassigned; (+)) [(+)-Example 47]

1: (86%) % 5-HT; 2: (87%) % 5-HT; 3: (87%) % 5-HT; 4: (92%) % 5-HT; 5: (95%) % 5-HT; 6: (92%) % 5-HT; 7: (95%) % 5-HT

So what does the record say about Emax, % 5-HT 5-HT2C for C[C@H]1CNCCc2ccc(Cl)cc21 [lorcaserin, reference compound] ?
(99%) % 5-HT
